# Test details: SAD study in healthy volunteers: PK in plasma, whole blood, red blood cells
# Assay type: in vivo, human
# Stated conditions: human, red blood cells, po, 200 mg, HV single oral 200 mg (Cohort 3); red blood cells (calculated conc.); geometric mean; read-out: AUClast
Quantity measured: AUC(0-t) (µg·h/mL)
Dear colleague, please return just the value in µg·h/mL, with no unit written.

Query string: Return AUC(0-t) for the following molecule: O=Cc1c(O)cccc1OC[C@@H]1COCCN1C(=O)c1cccnc1CCO
Result string: 64400

* * *

# Test details: SAD study in healthy volunteers: PK in plasma, whole blood, red blood cells
# Assay type: in vivo, human
# Stated conditions: human, red blood cells, po, 400 mg, HV single oral 400 mg (Cohort 5); red blood cells (calculated conc.); geometric mean
# Method: To evaluate the safety and tolerability of single ascending doses of Compound I, 48 healthy volunteers (42 in the fasted state and 6 in the fed state) aged 18 to 55 years old were administered single ascending doses (50 mg to 2200 mg) of Compound I, while 16 healthy volunteers (14 in the fasted state and 2 in the fed state) aged 18 to 55 years old were administered placebo in a double blind, randomized, sequential manner. […]
Quantity measured: Cmax
Units required after the number.

Query string: Return Cmax for the following compound: O=Cc1c(O)cccc1OC[C@@H]1COCCN1C(=O)c1cccnc1CCO
Result string: 210 µg/mL

* * *

# Test details: SAD study in healthy volunteers: PK in plasma, whole blood, red blood cells
# Type: in vivo, human
# Stated conditions: human; HV single oral 50 mg (Cohort 1); whole blood; median
Quantity measured: Tmax (h)
Dear colleague, please return just the value in h, with no unit written.

Query string: Return Tmax for the following compound: O=Cc1c(O)cccc1OC[C@@H]1COCCN1C(=O)c1cccnc1CCO [Compound I]
Result string: 24

* * *

# Test details: MAD study in healthy volunteers: whole blood and plasma PK
# Type: in vivo, human
# Stated conditions: human; HV MAD Day 14, 15 mg QD maintenance; whole blood; median
Quantity measured: Tmax (h)
Dear colleague, please return just the value in h, with no unit written.

Query string: Return Tmax for the following compound: O=Cc1c(O)cccc1OC[C@@H]1COCCN1C(=O)c1cccnc1CCO [Compound I]
Result string: 6

* * *

# Test details: SAD study in healthy volunteers: PK in plasma, whole blood, red blood cells
# Type: in vivo, human
# Stated conditions: human, whole blood, po, 200 mg, HV single oral 200 mg (Cohort 3); geometric mean
Quantity measured: Cmax (ng/mL)
Dear colleague, please return just the value in ng/mL, with no unit written.

Query string: Return Cmax for the following compound: O=Cc1c(O)cccc1OC[C@@H]1COCCN1C(=O)c1cccnc1CCO
Result string: 34200

* * *

# Test details: MAD study in healthy volunteers: whole blood and plasma PK
# Type: in vivo, human
# Stated conditions: human; HV MAD Day 14, 50 mg QD maintenance; whole blood; read-out: AUC0-24
Quantity measured: AUC(0-t) (µg·h/mL)
Dear colleague, please return just the value in µg·h/mL, with no unit written.

Query string: Return AUC(0-t) for the following compound: O=Cc1c(O)cccc1OC[C@@H]1COCCN1C(=O)c1cccnc1CCO [Compound I]
Result string: 5140

* * *

# Test details: SCD cohort PK after repeated dosing
# Format: in vivo, human
# Stated conditions: human, plasma, 150 mg, MAD-3 (150 mg QD) week 6, SCD patient 0004; read-out: Plasma (Cmax) Concentration
Quantity measured: Cmax

Query string: Return Cmax for the following compound: O=Cc1c(O)cccc1OC[C@@H]1COCCN1C(=O)c1cccnc1CCO [Compound I]
Result string: 3830 ng/mL
